target: Cytochrome P450 3A4 (Homo sapiens) (UniProt P08684); assay: Cytochrome panel assay with activity outcomes; details: recombinant CYP, pro-luciferin dealkylation, luminescence, p450-cyp3a4; series mostly up to 57.1 µM
Sequence (P08684 whole entry, looked up): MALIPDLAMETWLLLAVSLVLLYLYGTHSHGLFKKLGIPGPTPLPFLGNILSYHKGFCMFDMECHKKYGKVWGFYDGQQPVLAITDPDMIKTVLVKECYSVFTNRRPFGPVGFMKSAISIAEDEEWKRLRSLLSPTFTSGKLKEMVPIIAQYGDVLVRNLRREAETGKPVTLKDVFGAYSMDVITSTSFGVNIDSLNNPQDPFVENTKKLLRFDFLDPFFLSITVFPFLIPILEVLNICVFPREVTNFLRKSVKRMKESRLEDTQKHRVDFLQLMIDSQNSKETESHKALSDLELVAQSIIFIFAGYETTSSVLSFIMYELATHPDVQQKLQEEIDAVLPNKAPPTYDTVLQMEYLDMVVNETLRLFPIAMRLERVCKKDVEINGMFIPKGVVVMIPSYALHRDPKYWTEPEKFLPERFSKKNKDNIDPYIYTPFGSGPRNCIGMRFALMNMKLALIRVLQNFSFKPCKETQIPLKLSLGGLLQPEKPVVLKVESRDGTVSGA
Screen size: about 16,000 compounds; about 5,100 (32%) were called active. Roughly 25% stayed inconclusive and do not appear here. Calls come from the whole dose curve; as a rule, active = well fitted curve in the direction sought with a large enough effect; inconclusive = small, poorly fitted or top-dose-only effect, or effect the other way; inactive = no such curve, though single readings can be large or run the other way. Some of the results follow.
# valid calls are 1 for active, 0 for inactive; nothing else

>  <Compound>
O=c1cc(CO)oc(CN2CCCC2)c1O

>  <Qualitative label>
0

$$$$
>  <Compound>
CCc1ccc(OCCCC(=O)Nc2ccc(N3CCCCC3)cc2)cc1

>  <Qualitative label>
0

$$$$
>  <Compound>
COc1ccc(C2C(C(=O)N3CCOCC3)c3ccccc3C(=O)N2c2ccc(OC)cc2)cc1 (configuration not stated)

>  <Qualitative label>
1

$$$$
>  <Compound>
O=C(Nc1ccc(N2CCCCC2)cc1)c1cncc(Br)c1

>  <Qualitative label>
1

$$$$

Shift focus to the following entry.
Prompt line: Can you look up the reported call for "O=C(Cn1cnc([N+](=O)[O-])n1)N/N=C/c1ccccc1O" for me?
Response line: 0
